Molecular target: T1, Human LILRB2 on transiently transfected HEK293-6E cells (human, UniProt Q8N423 22-597)
T1 construct: whole, on cells; also called hLILRB2
T1 sequence (Q8N423 22-597): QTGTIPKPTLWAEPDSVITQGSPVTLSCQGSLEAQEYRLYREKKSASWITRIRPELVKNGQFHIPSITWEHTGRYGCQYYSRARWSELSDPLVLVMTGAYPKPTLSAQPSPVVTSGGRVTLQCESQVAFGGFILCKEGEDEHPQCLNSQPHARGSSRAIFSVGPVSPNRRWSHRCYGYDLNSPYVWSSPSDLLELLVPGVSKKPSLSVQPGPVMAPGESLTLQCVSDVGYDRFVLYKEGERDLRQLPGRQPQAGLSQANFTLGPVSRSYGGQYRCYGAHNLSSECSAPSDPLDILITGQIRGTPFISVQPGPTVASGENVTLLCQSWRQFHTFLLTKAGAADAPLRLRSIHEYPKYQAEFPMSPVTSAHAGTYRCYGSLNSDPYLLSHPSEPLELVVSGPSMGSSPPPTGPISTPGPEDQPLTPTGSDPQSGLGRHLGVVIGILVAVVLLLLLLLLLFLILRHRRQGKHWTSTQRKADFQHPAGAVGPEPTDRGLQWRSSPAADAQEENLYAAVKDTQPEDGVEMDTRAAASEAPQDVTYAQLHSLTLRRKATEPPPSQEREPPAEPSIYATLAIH
Assay: flow cytometry, transiently transfected HEK293-6E cells
RECORDED METRIC: Bmax (MFI)
Give bare numbers, in MFI.

Entry B2H1-55 (antibody, V domains shown, Humanized variant, human IgG1 / kappa; also called humanized variant B2H1-55; humanized LILRB2 antibody B2H1-55) VH: EVQLLESGGGLVQPGTSLTLSCAASGFSLSTYAMSWVRQAPGKGLEWIGWIYNDGSTYYAAWAKGRFTISKDTSKTTLYLQITSLRAEDTATYFCAREGDYIGYFNIWGQGTLVTVSS VL: DVVMTQTPSSVSAALGGTVTIKCQASQSIGSNLAWYQLKPGQRPKLLIYAAATLASGGSSRFKGSGSGTDFTLTISSLEPADAATYYCQSYVSGSSDVAFGGGTEVVVK needs its Bmax (MFI) filled in; supply it. 11000
